# TARGET ENTITY: T1, PDZRN3_1, Q9UPQ7
# T1 sequence (Q9UPQ7 244-349, limits assumed, looked up): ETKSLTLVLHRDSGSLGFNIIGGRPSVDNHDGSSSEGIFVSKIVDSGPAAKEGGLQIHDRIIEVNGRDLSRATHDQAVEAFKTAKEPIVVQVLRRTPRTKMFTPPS
# EXPERIMENT SUMMARY: holdup assay
# Set-up: key: below the threshold = too weak to quantify, mostly under pKd 3.1 to 4
# CONDITION CONTEXT: plain residues with an end cap or a label only (N-terminal biotin on a linker: ado-ado)
RESULT TYPE: pKd

Known pKd results, listed for orientation:
QKNKDREYYV [NRXN3, Q9HDB5] = below the threshold
KKTPVSRSHL [SLC22A3, O75751] = below the threshold
RGKNRRQSIF [CDK18, Q07002] = below the threshold
IKLETKKTKL [SLC15A2, Q16348] = below the threshold

Exam item: For the binder GNDPDRGTSI [GRID2, O43424] , what pKd is on record?
Marked response: 3.88

Exam item: For the binder QKASRNESTF [POLR1D, P0DPB6] , what pKd is on record?
Marked response: below the threshold

Exam item: For the binder GTMFLRETSL [GUCY1A2, P33402] , what pKd is on record?
Marked response: 6.34

Exam item: For the binder PLPPEEESWV [GAS2L2, Q8NHY3] , what pKd is on record?
Marked response: 3.52

Exam item: For the binder DFKHTKSFII [JAM2, P57087] , what pKd is on record?
Marked response: below the threshold

Exam item: For the binder PEKVSNTTVV [IGSF5, Q9NSI5] , what pKd is on record?
Marked response: below the threshold

Exam item: For the binder FVFESRKEIL [TBPL1, P62380] , what pKd is on record?
Marked response: below the threshold

Exam item: For the binder MLPANYVEAI [NEB, P20929] , what pKd is on record?
Marked response: below the threshold

Exam item: For the binder RSPVATATSC [DUSP5, Q16690] , what pKd is on record?
Marked response: below the threshold

Exam item: For the binder LPPPESESKV [KCNJ9, Q92806] , what pKd is on record?
Marked response: below the threshold

Exam item: For the binder SQPLLVHDDV [KIT, P10721] , what pKd is on record?
Marked response: below the threshold

Exam item: For the binder VCMGDHWFDV [PRKN, O60260] , what pKd is on record?
Marked response: below the threshold

Exam item: For the binder TKEIPNCTSV [SORCS3, Q9UPU3] , what pKd is on record?
Marked response: 3.92
